assaySystem: human recombinant H-PGDS (Homo sapiens, UniProt O60760)
Sequence (O60760 whole entry): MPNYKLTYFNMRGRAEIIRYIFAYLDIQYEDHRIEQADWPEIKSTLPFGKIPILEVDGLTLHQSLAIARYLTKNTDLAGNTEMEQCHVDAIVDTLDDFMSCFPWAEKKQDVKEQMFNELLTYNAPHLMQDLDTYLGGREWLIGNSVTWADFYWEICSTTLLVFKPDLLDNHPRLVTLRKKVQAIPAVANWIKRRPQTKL
measurementNotes: Fluorescence intensity h-PGDS TBA enzyme assay (PGH2 depletion, MDA/TBA fluorescence)
Assay type: biochemical
experimentalParameters: 1:175,000 human recombinant H-PGDS, 42 second reaction, 3-fold serial dilutions, highest concentration typically 1 μM
pIC50: −log10 of the molar value. Where a name gives a salt, the structure may show the parent alone.
Class true (1): pIC50 at least 8. Class false (0): pIC50 below 8.

* COC1(CO)CCC(NC(=O)c2ccc(-c3cccc(F)c3)nc2)CC1 (stereo not shown) [Example 225] | true (1)
* CCN(C)C(=O)[C@@H]1CC[C@H](NC(=O)c2ccc(-c3cccc(F)c3)nc2)C1 [Example 157] | true (1)
* O=C(N[C@H]1CC[C@@H](C(=O)N2CC[C@H](F)C2)C1)c1ccc(-c2cccc(F)c2)nc1 [Example 159] | true (1)
* O=C(CO)N[C@H]1CC[C@@H](NC(=O)c2ccc(-c3cccc(F)c3)nc2)CC1 [Example 220] | false (0)
* O=C(NC1(c2ccccn2)CC1)c1ccc(-c2cccc(F)c2)nc1 [Example 1] | false (0)
* O=C(N[C@@H]1CCC[C@H](C(=O)NC2CCNCC2)C1)c1ccc(-c2cccc(F)c2)nc1 (relative stereo) [Example 191, hydrochloride] | false (0)
* O=C(NC1CCCc2ccccc21)c1ccc(-c2cc(F)cc(F)c2)nc1 (stereo not shown) [Example 124] | false (0)
* CC(C)(O)C(=O)N[C@H]1CC[C@@H](NC(=O)c2ccc(-c3cccc(F)c3)nc2)CC1 [Example 216] | false (0)

Moving on to the next compound.
Does COC(=O)C1(NC(=O)c2ccc(-c3cccc(OC)c3)nc2)CC1 [Example 4] have a reported pIC50 of at least 8?
false (0)
